- SYSTEM NAME: human TLR7 (Homo sapiens, UniProt Q9NYK1)
- Sequence (Q9NYK1 27-1049): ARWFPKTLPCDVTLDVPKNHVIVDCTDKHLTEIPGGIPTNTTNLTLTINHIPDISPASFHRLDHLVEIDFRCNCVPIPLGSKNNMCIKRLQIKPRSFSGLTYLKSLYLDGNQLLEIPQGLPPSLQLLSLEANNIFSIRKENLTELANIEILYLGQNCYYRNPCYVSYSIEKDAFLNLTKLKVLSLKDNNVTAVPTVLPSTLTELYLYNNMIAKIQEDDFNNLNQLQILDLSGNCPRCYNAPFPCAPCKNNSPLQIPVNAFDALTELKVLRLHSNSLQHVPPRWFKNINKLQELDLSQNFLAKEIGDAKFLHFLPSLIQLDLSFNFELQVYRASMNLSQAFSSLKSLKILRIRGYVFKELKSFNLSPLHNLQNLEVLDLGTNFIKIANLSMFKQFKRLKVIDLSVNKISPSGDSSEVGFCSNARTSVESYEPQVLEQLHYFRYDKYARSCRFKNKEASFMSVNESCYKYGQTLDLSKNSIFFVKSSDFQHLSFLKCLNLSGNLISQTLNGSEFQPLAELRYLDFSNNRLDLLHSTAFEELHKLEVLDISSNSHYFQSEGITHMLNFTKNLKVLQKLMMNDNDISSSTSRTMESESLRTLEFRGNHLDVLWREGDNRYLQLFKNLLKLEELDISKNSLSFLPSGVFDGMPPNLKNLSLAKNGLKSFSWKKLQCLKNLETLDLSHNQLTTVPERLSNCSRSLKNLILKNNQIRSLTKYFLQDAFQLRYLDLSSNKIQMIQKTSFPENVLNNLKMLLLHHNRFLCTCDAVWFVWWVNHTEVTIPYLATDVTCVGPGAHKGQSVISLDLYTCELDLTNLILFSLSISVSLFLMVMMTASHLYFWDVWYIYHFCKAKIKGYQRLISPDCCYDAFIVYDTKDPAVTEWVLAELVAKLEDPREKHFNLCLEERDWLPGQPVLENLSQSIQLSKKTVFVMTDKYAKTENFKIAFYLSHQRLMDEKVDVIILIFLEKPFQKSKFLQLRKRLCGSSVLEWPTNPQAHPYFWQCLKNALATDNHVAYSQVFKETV
- ASSAY DETAILS: TLR7 inhibition reporter assay (HEK-Blue SEAP)
- CONDITION DETAILS: HEK-Blue cells overexpressing human TLR7, stimulated with gardiquimod 7.5 μM, 22 hour incubation
PROPERTY NAME: IC50 (nM)

Some entries whose results are on file:
- MOLECULE: "Cc1cc(-c2[nH]c3ccc(O[C@H]4CCCNC4)cc3c2C(C)C)cn(C)c1=O"
  PROPERTY NAME: "IC50"
  VAL: 6.6
- MOLECULE: "Cc1c(-c2[nH]c3ccc(OCC4CCN(C(C)C)CC4)cc3c2C(C)C)cn2cnnc2c1C"
  PROPERTY NAME: "IC50"
  VAL: 2.6
- MOLECULE: "Cc1cc(-c2[nH]c3ccc(OCC4CCNCC4)cc3c2C(C)C)cc(C)n1"
  PROPERTY NAME: "IC50"
  VAL: 1.8
- MOLECULE: "Cc1cc(-c2[nH]c3ccc(OC4CCNCC4)cc3c2C(C)C)cn(C)c1=O"
  PROPERTY NAME: "IC50"
  VAL: 2.8
- MOLECULE: "Cc1cc(-c2[nH]c3ccc(OC4CCC(N(C)C)CC4)cc3c2C(C)C)cn2ncnc12 (centres unmarked)"
  PROPERTY NAME: "IC50"
  VAL: 0.7
- MOLECULE: "Cc1cc(-c2[nH]c3ccc(OCC4CCN(C)CC4)cc3c2C(C)C)ccn1"
  PROPERTY NAME: "IC50"
  VAL: 44.7

I = Cc1cc(-c2[nH]c3ccc(OCC4CCN(C(=O)CN(C)C)CC4)cc3c2C(C)C)cn(C)c1=O
II = Cc1cc(-c2[nH]c3ccc(OCC4CCN(C(C)C)CC4)cc3c2C(C)C)ccn1
Query: Could you kindly indicate whether I or II has the higher IC50 value? To answer, give the label that identifies your chosen option.
Result: II

The reported measurements were obtained from patent US12030878B2.
